B1: MYOZ1 (parent)
chain: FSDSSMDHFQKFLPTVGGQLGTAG

Variants of: B1
Assay: protein stability index of a GFP-peptide fusion (GPS, HEK-293T) (PSI 1-6); higher = more stable;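 further: lentivirally expressed fusions sorted by FACS into six bins by GFP to DsRed ratio, PSI derived from sequencing read proportions per bin multiplied by bin number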
Details: c terminus: a fixed tail appended
observation_type: protein stability index

G17N	2.98
S2I	1.92
G24D	3.09
K11R	2.12
H8L	1.35
Q19E	3.12

**Query** Can you look up the measured protein stability index of `V16H` for me?
**Result** 2.75

**Query** // protein stability index lookup, key: `S4I`
**Result** 3.59

**Query** Give its protein stability index value. Item: `L13I`
**Result** 1.9

**Query** Tell me the measured protein stability index of `V16M` , please.
**Result** 2.46

**Query** Fill in: protein stability index of `F9A` is ___
**Result** 2.71

**Query** // lookup protein stability index for `T15Q`
**Result** 2.94

**Query** Please report the recorded protein stability index for `F1C` .
**Result** 2.26

**Query** I am curious: what protein stability index value has been reported for `G21Y` ?
**Result** 1.59

**Query** Could you tell me which protein stability index is on file for `Q19G` ?
**Result** 2.05

**Query** GET /values?readout=protein stability index&item= `D3P`
**Result** 1.56

All values here come from the supplement of paper PMC10567573.
